- Test system: A498
- experimental details: NCI tumour cell line growth inhibition, 48 h
Calls of active or inactive are those of the source. Rule as the data show it: active = GI50 up to about 1.1 µM and inactive = higher.
Give your call using only these classes: active, inactive

For orientation, consider the following solved cases.
# compound, answer label
records = [
    ("O=c1[nH]nc(-c2ccc([N+](=O)[O-])cc2)[nH]1", "inactive"),
    ("COC(CN1C=C(Sc2ccccc2)CC1)OC", "inactive"),
    ("COc1ccc(OC2OC(COC(c3ccccc3)(c3ccc(OC)cc3)c3ccc(OC)cc3)C(O)C(O)C2O)cc1 (stereo not drawn)", "inactive"),
    ("C=C(C1=CC(=O)C(C)(C)O1)[C@@H]1CC=C([C@@H]2CC[C@H]3[C@@]2(C)CC[C@H]2C(C)(C)C(=O)[C@H](O)C[C@]32C)[C@H](O)O1", "inactive"),
    ("CC(=O)O[C@@]12CO[C@@H]1CC(O)[C@@]1(C)C(=O)[C@H](O)C3=C(C)C(O)C[C@@](O)(C(OC(=O)c4ccccc4)C12)C3(C)C (stereo partly drawn)", "inactive"),
    ("Cc1ccc(S(=O)OCC23CC4CC(CC(C4)C2)C3)cc1 (stereo not drawn)", "inactive"),
    ("Cc1ccc(NC(=O)CC(=O)n2nc(-c3ccccc3)c(/N=N/c3ccccc3Cl)c2-c2ccccc2)cc1", "inactive"),
    ("CCN(CC)CCCC(C)NC(=O)c1cc(-c2nccn2C)nc2ccc(C)cc12 (stereo not drawn)", "inactive"),
]

Exercise: For this compound, state the assay outcome: Cc1cc(N2CCOCC2)nc2ccc(Cc3ccc4nc(N5CCOCC5)cc(C)c4c3)cc12
Key: inactive

Exercise: For this compound, state the assay outcome: COc1ccc(S(=O)(=O)Nc2ccc(-c3csc(N4C(=O)/C(=C/C=C\c5ccccc5)N=C4c4ccccc4)n3)cc2)cc1Cl
Key: inactive

Exercise: For this compound, state the assay outcome: COc1cc2c(OC)c(c1)CCCC1=CC(=O)C=C(CCC2)C1=O
Key: inactive

Exercise: For this compound, state the assay outcome: COc1ccc(N2C(=O)C(=O)N(c3ccc(/N=N\c4ccccc4)cc3)C2=S)cc1
Key: inactive

Exercise: For this compound, state the assay outcome: CC(C)(C)C1CC[C@H](O)[C@H]([C@H](O)CC2CC(=O)N(c3ccccc3)C(=O)C2)C1 (stereo partly drawn)
Key: inactive

Exercise: For this compound, state the assay outcome: O=NN1C(c2ccccc2)CCCC1c1ccccc1 (stereo not drawn)
Key: inactive

Exercise: For this compound, state the assay outcome: CCOC(=O)C(Cc1ccccc1)NC(=O)c1ccc(/N=N/N(C)C)cc1 (stereo not drawn)
Key: inactive

* * *

# Lookup of reported GI50 keyed by entry
- System: SNB-75
- experimental details: NCI tumour cell line growth inhibition, 48 h
Activity calls are given as the source filed them. Rule as the data show it: active = GI50 up to about 1.1 µM and inactive = higher.

Would you please look over these solved cases?
# compound, recorded result
data = [
    ("C[n+]1c2ccccc2n2c3ccccc3c(NCCc3ccccn3)c(C#N)c21", "1.38 µM (inactive)"),
    ("CCCCN(CC)C(=O)C(=O)Cc1nc2ccc(C(=O)c3ccccc3)cc2nc1O", "25.8 µM (inactive)"),
    ("O=[N+]([O-])c1ccc(N/N=C/c2ccc(OCCCCCCCCCCCO)cc2)c([N+](=O)[O-])c1", "1.94 µM (inactive)"),
    ("O=C(OCC(OC(=O)c1ccccc1)C1CC(C(O)C2CCCCC2)C(=O)O1)c1ccccc1 (stereo not given)", "51.4 µM (inactive)"),
]

Okay, now this compound:
Exercise: # lookup: GI50 of N#CC1(C#N)C(=O)c2ccncc2C1=O
Key: > 100 µM (inactive)
